Where do the numbers come from? From patent US20200369996A1.

Test system: human ventricular cardiac tissue strips (hvCTS)
Experiment: hvCTS drug screening: twitch force under electrical pacing
Assay type: cell-based
Details: Homo sapiens, 1 Hz pacing; blinded screening, Example 4; read-out: EC50, developed contractile force
Description: One of ordinary skill in the art will recognize that the gels can be formed in any of a variety of sizes and shapes, and the molds used to form such gels can also be formed in any of a variety of sizes and shapes, depending on the intended use of the molded gel. […] Data analysis. Data were calculated and analyzed by a customized MatLab program. […] […] Hill Slope quantifies the steepness of the dose-response curve (the higher the Hill Slope, the steeper the curve).
pEC50: −log10 of the molar value.
Threshold check on pEC50: at or above 6 gives 1 (yes), strictly below gives 0 (no).

Would you please look over these solved cases?
>>> print(df.to_string())
                                   compound    class
0  COc1ccc(Cl)cc1C(=O)NCCc1ccc(S(=O)(=O)NC(=O)NC2CCCCC2)cc1 [Glibenclamide]   0 (no)
1  NC[C@H](O)c1ccc(O)c(O)c1 [Norepinephrine]  1 (yes)
2                Cn1c(=O)c2c(ncn2C)n(C)c1=O  1 (yes)
3            Cc1[nH]c(=O)c(C#N)cc1-c1ccncc1   0 (no)

Challenge: Check if pEC50 >= 6 (inclusive). Item: CC(CCc1ccc(O)cc1)NCCc1ccc(O)c(O)c1 (centres unmarked)
Response given: 1 (yes)

---

System: human ventricular cardiac tissue strips (hvCTS)
Test: hvCTS drug screening: twitch force under electrical pacing
Format: cell-based
Conditions: Homo sapiens, 2 Hz pacing; Example 2 / FIG. 2C; read-out: EC50, developed contractile force
Experimental: One of ordinary skill in the art will recognize that the gels can be formed in any of a variety of sizes and shapes, and the molds used to form such gels can also be formed in any of a variety of sizes and shapes, depending on the intended use of the molded gel. […] Data analysis. Data were calculated and analyzed by a customized MatLab program. […] […] Hill Slope quantifies the steepness of the dose-response curve (the higher the Hill Slope, the steeper the curve).
readoutKind: pEC50
// pEC50 is dimensionless: -log10 of concentration (M)

Challenge: Param item = CC(C)NCC(O)c1ccc(O)c(O)c1 (stereo not shown) [Isoproterenol] ; retrieve measured pEC50.
Response given: 7.51

---

test system: human ventricular cardiac tissue strips (hvCTS); test: hvCTS drug screening: twitch force under electrical pacing; type: cell-based; settings: Homo sapiens, 0.5 Hz pacing; Example 2 / FIG. 2C; read-out: EC50, developed contractile force
readoutKind: EC50
Please state the number and follow it with the unit.

Challenge: Look up EC50 for this molecule: CC(C)NCC(O)c1ccc(O)c(O)c1 (stereo not shown)
Response given: 39 nM

---

System: human ventricular cardiac tissue strips (hvCTS)
Assay: hvCTS drug screening: twitch force under electrical pacing
Format: cell-based
Details: Homo sapiens, Unblinded; 1 Hz pacing; read-out: -log EC50 in hvCTS (converted)
Method: One of ordinary skill in the art will recognize that the gels can be formed in any of a variety of sizes and shapes, and the molds used to form such gels can also be formed in any of a variety of sizes and shapes, depending on the intended use of the molded gel. […] Data analysis. Data were calculated and analyzed by a customized MatLab program. […] […] Hill Slope quantifies the steepness of the dose-response curve (the higher the Hill Slope, the steeper the curve).
Hi! Could you tag entries with EC50 below 3000 nM as Fulfilled, and those at or above as Not fulfilled? Much appreciated.

These recorded examples may help you get a feel for the data.
>>> print(df.to_string())
                                   molecule          class
0  COc1ccc(Cl)cc1C(=O)NCCc1ccc(S(=O)(=O)NC(=O)NC2CCCCC2)cc1 [Glibenclamide]      Fulfilled
1            Cc1[nH]c(=O)c(C#N)cc1-c1ccncc1      Fulfilled
2  C[C@@H]1CC(=O)NN=C1c1ccc(NN=C(C#N)C#N)cc1      Fulfilled
3  CC(CCc1ccc(O)cc1)NCCc1ccc(O)c(O)c1 (stereo not drawn)      Fulfilled
4  COCC(=O)O[C@]1(CCN(C)CCCc2nc3ccccc3[nH]2)CCc2cc(F)ccc2[C@@H]1C(C)C  Not fulfilled
5  CC(C)N(CCC(C(N)=O)(c1ccccc1)c1ccccn1)C(C)C (stereo not drawn) [Disopyramide]  Not fulfilled

Challenge: Does the reported EC50 of the following molecule sit strictly below 3000 nM? CC(C)COCC(CN(Cc1ccccc1)c1ccccc1)N1CCCC1 (stereo not drawn)
Response given: Not fulfilled

Challenge: Item: O=C(NCC1CCCCN1)c1cc(OCC(F)(F)F)ccc1OCC(F)(F)F (stereo not drawn) [Flecainide]
Response given: Not fulfilled

Challenge: Record: CC(C)NCC(O)c1ccc(O)c(O)c1 (stereo not drawn)
Response given: Fulfilled
